src = PubChem BioAssay (NCI)

// reported TGI per item
system: HT29 colon; experiment: NCI tumour cell line growth inhibition, 48 h

// known answers, use as guide
Item: O=c1cccccc1[O-].O=c1cccccc1[O-].O=c1cccccc1[O-].[Nd+3] Test system: HT29 colon Read-out: TGI Value: ?
> 100 µM

Provide value of TGI for this record tested with HT29 colon: C[C@@H](NC1CCCC[C@@H]1O)c1ccccc1 (some centres undefined)
> 100 µM

For HT29 colon, provide TGI of C=CC(C)(C)NC(C(=O)N1CCC[C@H]1c1nc(-c2nc(C(=O)OCC=C(C)C)c(C)o2)c(C)o1)C(C)C (some centres undefined) please.
> 86.8 µM

Enter reported TGI observed with HT29 colon for O=S(=O)(O)c1c(Cl)c(Cl)c(O)c2ncccc12
24 µM

Please tell me: TGI of CC(=O)Oc1ccc(C2OC(c3ccc4ccccc4c3OC(C)=O)=NN2C(C)=O)c(OC(C)=O)c1 (centres undefined) , system HT29 colon?
> 52.8 µM

Missing value: TGI, HT29 colon, entry NNC(=O)/C(NC(=O)c1ccccc1)=C(\N)c1cccc([N+](=O)[O-])c1 . Fill in?
> 100 µM

Under HT29 colon: TGI value of CN1CCS(=O)(=O)NC(Cc2ccccc2)C(=O)N2CCCC2C1=O (centres undefined) ?
> 100 µM

Observed TGI on HT29 colon for CCN(N=O)C1C2(CCCC2)NC(=O)C12CCCC2 (centres undefined) , please.
> 100 µM

Others:
What value of TGI on HT29 colon does COC(=O)c1cc(/C=C/C(=O)Cc2ccccc2)cn1S(=O)(=O)c1ccccc1 have?
> 100 µM

Lab note: need TGI for Cc1cc(S(=O)(=O)Nc2nc3ccccc3c(=O)n2Cc2ccco2)c(S)cc1Cl on HT29 colon, anyone have it?
> 100 µM

Which measured TGI belongs to CCOC(=O)C(C(=O)OCC)c1cc(-c2cc3ccccc3o2)oc(=O)c1C#N , tested on HT29 colon?
35 µM

###

This section presents molecules with their documented TGI values.
system: MDA-MB-435; experiment: NCI tumour cell line growth inhibition, 48 h
Quick note: give the figure in µM, leave out the unit.

Please look up its TGI: COc1cc(/C=C2\CCC/C(=C\c3cc(CN4CCCC4)c(O)c(OC)c3)C2=O)cc(CN2CCCC2)c1O
7.46

What does the record list as TGI for COc1cccc2nc(Nc3cccc(NC(=O)c4ccc(N5CCN(C)CC5)c(C(F)(F)F)c4)c3)ccc12 ?
1.73

Given COc1ccc2nc3c4c(nccc4c2c1)-c1ncccc1C3=O , state its recorded TGI.
0.148

So what does the record say about TGI for Cc1[nH]c(C(=O)Nc2cccc(OC3CCNCC3)c2)c(Cl)c1Cl ?
3.3

###

system: M14 melanoma; test: NCI tumour cell line growth inhibition, 48 h
The reader will find reported TGI values listed item by item below.

These recorded examples may help you get a feel for the data.
Given the entry Cn1c2c(c3ccccc31)CCN1C[C@@H]3CCCC[C@H]3C[C@@H]21 , report its measured TGI.
18.4 µM

Give its TGI value. Item: COc1nc(=O)[nH]c2c1C(c1ccc([N+](=O)[O-])cc1)c1c(OC)nc(=O)[nH]c1O2
> 100 µM

Now examine the next entry.
Using the record for CC(=O)OC(C(=O)[O][Ge]([CH3])([CH3])[CH3])c1ccccc1 (stereo not drawn) , report its TGI.
> 100 µM

###

tested on: SW-620 colon; assay: NCI tumour cell line growth inhibition, 48 h
Known TGI of a selection of compounds

Consider the reported TGI for these compounds:
Need TGI, item C/C(=C\[Si](C)(C)c1ccco1)C(C)(O)[C@H](C)O (some centres not stated)
> 100 µM

Using the record for COc1ccc2[nH]c(C(=O)OCc3ccc4c(Br)cc(Br)c(O)c4n3)cc2c1 , report its TGI.
1.41 µM

Item O=C1CCC(=O)c2ccccc2N1 has what recorded TGI?
> 100 µM

What value of measured TGI is listed for O=C1NC(c2ccc3ccccc3c2)Nc2ccccc21 (configuration not stated) ?
> 100 µM

What value of TGI has been recorded for this entry: Cc1[nH]c(=O)n2c(C)nnc2c1C(=O)O
> 100 µM

Field request: TGI | item: CC(C)[C@@]12C[C@@H](OC(=O)COC(=O)c3ccccc3)[C@@](C)(O1)[C@@H]1CC[C@@H](C)[C@H]1[C@@H]2OC(=O)/C=C/c1ccccc1
> 100 µM

Further cases:
So what's the measured TGI for this one? COc1ccc2nc3cc([N+](=O)[O-])ccc3c(NCCO)c2c1
25.7 µM

###

system: M14 melanoma; experiment: NCI tumour cell line growth inhibition, 48 h
MEASURE NAME: TGI

Field: example entries. Status: answers known.
Report TGI for COc1cc(C2C(C(=O)NCc3ccccc3)=C(C)NC(C)=C2C(=O)NCc2ccccc2)ccc1O tested on M14 melanoma.
> 100 µM

API: value(readout=TGI, system=M14 melanoma) for record Nc1c(F)c(F)c2c(c1F)N(CCCCCl)c1ccccc1S2
> 100 µM

Would you kindly look at the next entry?
Notebook: pull reported TGI for M14 melanoma, entry COP12(OC)NC(=O)OC1(C(F)(F)F)c1ccccc1O2 (stereo not drawn)
> 100 µM

###

test system: OVCAR-8 ovarian; assay: NCI tumour cell line growth inhibition, 48 h
MEASURE NAME: TGI

Take a look at these entries with their results.
Requested read-out TGI, target or system OVCAR-8 ovarian, entry COc1ccc2nc3ccc(OC)cc3c(S(=O)Cc3ccccc3)c2c1 (stereo unspecified)
12.7 µM

Form field: TGI recorded for CCn1c2ccccc2c2ccc(C3C4C(=O)N(c5cccc6ccccc56)C(=O)C4ON3C(C(N)=O)c3ccccc3)cc21 (stereo unspecified) with OVCAR-8 ovarian (enter value)
> 25 µM

// fetch OVCAR-8 ovarian TGI for O=C1c2cc3c(cc2[C@@H]2C(O)[C@H]4O[C@H]4C4CCN1C42)OCO3 (stereo partly specified)
> 37.5 µM

OVCAR-8 ovarian / TGI / O=C1NC(c2ccc3ccccc3c2)Nc2ccccc21 (stereo unspecified) : value?
> 100 µM

For the record C=CC(C)(C)NC(C(=O)N1CCC[C@H]1c1nc(-c2nc(C(=O)OCC=C(C)C)c(C)o2)c(C)o1)C(C)C (stereo partly specified) , what value of TGI is listed for OVCAR-8 ovarian?
> 100 µM

Quick check: TGI on OVCAR-8 ovarian, item COC(=O)[C@]12CC[C@H]3CN(S(=O)(=O)c4ccc(C)cc4)[C@H]([C@H]31)[C@H](c1ccco1)N2S(=O)(=O)c1ccc(C)cc1 ?
> 100 µM

More entries:
Give recorded TGI with OVCAR-8 ovarian for the following compound: NNC(=O)/C(NC(=O)c1ccccc1)=C(\N)c1cccc([N+](=O)[O-])c1
> 100 µM

# get_value(readout= TGI, system= OVCAR-8 ovarian) for O=S(=O)(NCCNc1nccc(-c2c(-c3ccc(F)cc3)nc3sccn23)n1)c1ccc(O)cc1
22.5 µM

Find TGI (OVCAR-8 ovarian) for the entry CN(C)c1n2c3ccc([N+](=O)[O-])cc3n3c(N(C)C)[n+]4ccccc4c3c2c2cccc[n+]12
> 100 µM

Identify the measured TGI of COc1ccc(/C(C)=C2\CCCN(Cc3ccccc3)C2)cc1 for OVCAR-8 ovarian.
35.9 µM

Query TGI on OVCAR-8 ovarian for c1ccc2cc(C3NCCc4[nH]cnc43)ccc2c1 (stereo unspecified)
> 100 µM

###

tested on: HS 578T breast; assay: NCI tumour cell line growth inhibition, 48 h
MEASURE NAME: TGI

Guide cases for TGI, answers given:
Would you kindly share the measured TGI for Cn1c2c(c3ccccc31)CCN1C[C@@H]3CCCC[C@H]3C[C@@H]21 ?
> 100 µM

Name the recorded TGI for COc1ccc(C2=C(c3ccccc3)C(=O)N3CCCC3C2)cc1 (stereo not drawn) .
> 100 µM

Which TGI value belongs to C[n+]1cccc(NC(=O)c2ccc3ccc4ccc(C(=O)Nc5ccc[n+](C)c5)nc4c3n2)c1 ?
> 68.6 µM

Tell me the measured TGI of CS(=O)(=O)N1CCC(Nc2ncc(C(=O)c3c(F)cccc3F)c(N)n2)CC1 , please.
> 25 µM

---
Data request, read-out TGI, for COc1nc(=O)[nH]c2c1C(c1ccc([N+](=O)[O-])cc1)c1c(OC)nc(=O)[nH]c1O2
> 100 µM

// TGI lookup, key: CCCCCCCCCCCCCCCCCCN(C)CC(COC)OP(=O)([O-])OCC[N+](C)(C)C (stereo not drawn)
17.8 µM

Item COc1ccccc1/C=C1\CCC(Cc2ccccc2)(CN(C)C)C1=O (stereo not drawn) has what recorded TGI?
> 100 µM

Item under review: Cc1cn(C2CC(O)C(Cn3nncc3Cn3cnc4c(N)ncnc43)O2)c(=O)[nH]c1=O (stereo not drawn) . Reported TGI?
> 100 µM

Name the recorded TGI for CC(CC(=O)N1C2CC3CCC2(CS1(=O)=O)C3(C)C)[Si](C)(C)C (stereo not drawn) .
> 100 µM

Any idea what its TGI is? The compound is COc1ccc2c(c1)OCC1c3cc(OC)c4ccccc4c3OC21 (stereo not drawn)
37 µM

Would you kindly share the measured TGI for COC(C)=NCCC1=CCCCC1 ?
> 100 µM

Suppose we examine the compound CCCCCCCCCCCCCCCC(=O)NS(=O)(=O)OC[C@H]1O[C@@H](n2cnc3c(N)ncnc32)[C@H](O)[C@@H]1O ; what TGI value has been reported?
6.04 µM

Data request, read-out TGI, for CC[C@]12C=CCN3CC[C@@]4(c5ccc(OC)cc5N(C)[C@H]4[C@@](O)(C(=O)OC)[C@@H]1OC(=O)CCC(=O)O[C@H]1CC[C@H]4[C@@H]5CCC6=CC(=O)CC[C@@H]6[C@H]5CC[C@]14C)[C@@H]32
> 50 µM

Return reported TGI; argument: CCOC(=O)C1=C(C)NC2SC(=O)/C(=C\c3cccc(Cl)c3)N2C1c1ccccc1 (stereo not drawn)
> 100 µM
